target: panel of more than 300 wild-type and mutant kinases (313 kinase panel) (Homo sapiens, UniProt Q9BUB5); test: Kinase profiling in a biochemical assay panel (mobility shift assays and ELISA), %-inhibition at 1 μM; selectivity entropy; conditions: kinase MNK1; 1 μM
Sequence (Q9BUB5 whole entry, change not shown): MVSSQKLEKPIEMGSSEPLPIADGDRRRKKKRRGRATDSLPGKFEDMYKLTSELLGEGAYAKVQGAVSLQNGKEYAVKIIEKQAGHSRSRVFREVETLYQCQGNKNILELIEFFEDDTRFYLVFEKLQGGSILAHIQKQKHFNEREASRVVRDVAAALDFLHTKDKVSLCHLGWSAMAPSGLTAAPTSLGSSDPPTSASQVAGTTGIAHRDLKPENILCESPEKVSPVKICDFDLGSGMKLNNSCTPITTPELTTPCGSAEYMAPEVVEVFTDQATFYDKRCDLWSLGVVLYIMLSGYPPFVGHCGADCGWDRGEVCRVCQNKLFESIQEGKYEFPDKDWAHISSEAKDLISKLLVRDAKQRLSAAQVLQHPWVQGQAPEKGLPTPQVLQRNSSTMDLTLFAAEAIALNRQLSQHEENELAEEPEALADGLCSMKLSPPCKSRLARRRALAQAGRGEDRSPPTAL
Readout kind: %-inhibition of MNK1 (%)
// return numeric value only (unit: %, not printed)

Compound	Value observed
CO[C@H]1C[C@@H]2CC[C@@H](C)[C@@](O)(O2)C(=O)C(=O)N2CCCC[C@H]2C(=O)O[C@H]([C@H](C)C[C@@H]2CC[C@@H](OC(=O)C(C)(CO)CO)[C@H](OC)C2)CC(=O)[C@H](C)/C=C(\C)[C@@H](O)[C@@H](OC)C(=O)[C@H](C)C[C@H](C)/C=C/C=C/C=C/1C [temsirolimus]	-19
CC(C)(C)c1nc(-c2cccc(NS(=O)(=O)c3c(F)cccc3F)c2F)c(-c2ccnc(N)n2)s1 [dabrafenib]	20
CNC(=O)c1cc(Oc2ccc(NC(=O)Nc3ccc(Cl)c(C(F)(F)F)c3)c(F)c2)ccn1 [regorafenib]	7
C[C@@H](Oc1cc(-c2cnn(C3CCNCC3)c2)cnc1N)c1c(Cl)ccc(F)c1Cl [crizotinib]	0
N#CC[C@H](C1CCCC1)n1cc(-c2ncnc3[nH]ccc23)cn1 [ruxolitinib]	8.57
O=S(=O)(c1cccc2cnccc12)N1CCCNCC1 [fasudil]	15
Cc1ccc(Nc2nccc(N(C)c3ccc4c(C)n(C)nc4c3)n2)cc1S(N)(=O)=O [pazopanib]	-2
CS(=O)(=O)CCNCc1ccc(-c2ccc3ncnc(Nc4ccc(OCc5cccc(F)c5)c(Cl)c4)c3c2)o1 [lapatinib]	11
CCCS(=O)(=O)Nc1ccc(F)c(C(=O)c2c[nH]c3ncc(-c4ccc(Cl)cc4)cc23)c1F [vemurafenib]	23
Cc1ccc(C(=O)Nc2ccc(CN3CCN(C)CC3)c(C(F)(F)F)c2)cc1C#Cc1cnc2cccnn12 [ponatinib]	30

Bench note: what %-inhibition of MNK1 did COc1cc2c(Nc3ccc(Br)cc3F)ncnc2cc1OCC1CCN(C)CC1 [vandetanib] show?
91

Bench note: what %-inhibition of MNK1 did CC(=O)Nc1cccc(-n2c(=O)n(C3CC3)c(=O)c3c(Nc4ccc(I)cc4F)n(C)c(=O)c(C)c32)c1 [trametinib] show?
-3

Bench note: what %-inhibition of MNK1 did COc1cc2nccc(Oc3ccc(NC(=O)C4(C(=O)Nc5ccc(F)cc5)CC4)cc3)c2cc1OC [cabozantinib] show?
11

Bench note: what %-inhibition of MNK1 did COc1cc(Nc2c(C#N)cnc3cc(OCCCN4CCN(C)CC4)c(OC)cc23)c(Cl)cc1Cl [bosutinib] show?
-4.37

Bench note: what %-inhibition of MNK1 did CO[C@H]1C[C@@H]2CC[C@@H](C)[C@@](O)(O2)C(=O)C(=O)N2CCCC[C@H]2C(=O)O[C@H]([C@H](C)C[C@@H]2CC[C@@H](OCCO)[C@H](OC)C2)CC(=O)[C@H](C)/C=C(\C)[C@@H](O)[C@@H](OC)C(=O)[C@H](C)C[C@H](C)/C=C/C=C/C=C/1C [everolimus] show?
-0.485
